# kon annotations
- system-tested: T1, human IL-6 (Interleukin-6) (human, UniProt P05231 30-212)
- T1 construct: also called 001 IL-6 antigen
- test-name: Biacore (SPR), antibody captured on anti-human Fc, IL-6 as analyte
The answer is to be given in M⁻¹ s⁻¹; state only the numeric part.

Before answering, review these 3 worked examples.
Fill in: kon of Anti-IL-6 Ab BA939 (antibody, V domains shown, Humanized monoclonal antibody) VH: QVQLVQSGAEVKKPGASVKVSCKASGFTFSSFAMSWVRQAPGQGLEWMGEISSGGSYTYYPDTVTGRFTISRDNAKNSLYLQMNSLRAEDTAVYYCARGLWGYYALDYWGQG VL: DIQMTQSPSSLSASVGDRVTITCSASSSVSYMYWYQQKPGQAPRLLIYDTSNLASGIPPRFSGSGYGTDFTLTINNIESEDAAYYFCQQWSGYPYTFGQG is ___
1.44e+06

Can you look up the measured kon of Anti-IL-6 Ab BA840 (antibody, V domains shown, Humanized monoclonal antibody) VH: QVQLVQSGAEVKKPGASVKVSCKASGFTFSSFAMSWIRQPPGKGLEWIGEISSGGSYTYYPDTVTGRFTISRDNAKNSLYLQMNSLRAEDTAVYYCARGLWGYYALDYWGQG VL: EIVLTQSPDFQSVTPKEKVTITCSASSSVSYMYWYLQKPGQSPQLLIYDTSNLASGIPPRFSGSGYGTDFTLTINNIESEDAAYYFCQQWSGYPYTFGQG for me?
1.01e+06

// query kon value for entry Anti-IL-6 Ab BA848 (antibody, V domains shown, Humanized monoclonal antibody) VH: EVQLVQSGAEVKKPGASVKVSCKASGFTFSSFAMSWVRQAPGQGLEWMGEISSGGSYTYYPDTVTGRFTISRDNAKNSLYLQMNSLRAEDTAVYYCARGLWGYYALDYWGQG VL: AIQLTQSPSSLSASVGDRVTITCSASSSVSYMYWYQQKPGQAPRLLIYDTSNLASGIPPRFSGSGYGTDFTLTINNIESEDAAYYFCQQWSGYPYTFGQG
1.25e+06

Others:
Item under review: Anti-IL-6 Ab BA802 (antibody, V domains shown, Humanized monoclonal antibody) VH: QVQLVQSGAEVKKPGASVKVSCKASGFTFSSFAMSWIRQSPSRGLEWLGEISSGGSYTYYPDTVTGRFTISRDNAKNSLYLQMNSLRAEDTAVYYCARGLWGYYALDYWGQG VL: EIVLTQSPDFQSVTPKEKVTITCSASSSVSYMYWYLQKPGQSPQLLIYDTSNLASGVPSRFSGSGSGTDFTLTISSLQPEDFATYYCQQWSGYPYTFGQG . Reported kon?
1.48e+06
